- measured-on: T1, HLA-A*02:01 class I complex (conditional p*HLA*02:01, biotinylated heavy chain with beta2-microglobulin) (human, biotinylated heavy chain)
- T1 construct: UV-labile peptide p* is cleaved and exchanged for the test peptide; also called HLA 2.1
- protocol-details: UV peptide exchange, HLA class I ELISA, % of Pos peptide;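 note: Streptavidin-captured HLA complexes after exchange detected via HRP anti-human B2M antibody, absorbance read, colour scales with intact complex, normalized to exchange control peptide as 100%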
Would you please tag the item 1 when its Average % is 70% or above, and 0 when it is below?

These solved cases illustrate the format of a correct answer.
{"binder": "NLDEYVHNV (also called M112) [SF3B1_R625H6 mimic peptide NLDEYVHNV]", "label-value": 1}
{"binder": "MIFSKRHWA (also called M010) [CIC.R215W mutant peptide MIFSKRHWA]", "label-value": 0}
{"binder": "QLWVDSTPL (also called M180) [TP53.P152L mutant peptide QLWVDSTPL]", "label-value": 1}
{"binder": "VMSDAISAV (also called M122; SOX17_S40313) [SOX17_S403I3 mimic peptide VMSDAISAV]", "label-value": 1}
{"binder": "VVPCEPPEV (also called M230) [TP53.Y220C mutant peptide VVPCEPPEV]", "label-value": 0}

Prompt line: Evaluate LMVVGAVGV (also called M072) [KRAS_G12V3 mimic peptide LMVVGAVGV] : Average % at minimum 70%?
Response line: 0
